Reported log10 of IC50 values for a set of molecules
# target or system: MMP2 (Homo sapiens, UniProt P08253)
# Sequence (P08253 110-660): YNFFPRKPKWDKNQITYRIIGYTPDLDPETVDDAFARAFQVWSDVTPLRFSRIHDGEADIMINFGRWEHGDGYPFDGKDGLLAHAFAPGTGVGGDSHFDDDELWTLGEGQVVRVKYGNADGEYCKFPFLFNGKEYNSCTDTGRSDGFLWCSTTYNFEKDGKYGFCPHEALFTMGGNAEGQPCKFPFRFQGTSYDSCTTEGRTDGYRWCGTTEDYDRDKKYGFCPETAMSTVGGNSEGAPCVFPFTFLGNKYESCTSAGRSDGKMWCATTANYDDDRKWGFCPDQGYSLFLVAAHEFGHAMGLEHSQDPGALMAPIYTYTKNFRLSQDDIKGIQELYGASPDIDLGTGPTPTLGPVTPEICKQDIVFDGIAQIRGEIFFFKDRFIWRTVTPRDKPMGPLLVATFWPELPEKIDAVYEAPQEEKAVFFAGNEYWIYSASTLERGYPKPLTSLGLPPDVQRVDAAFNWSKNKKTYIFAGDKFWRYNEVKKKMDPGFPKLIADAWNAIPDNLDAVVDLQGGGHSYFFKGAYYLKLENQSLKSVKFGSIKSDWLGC
# method description: Inhibitory effects on human MMP2 (Method 1), enzyme assay with MOCAc-Pro-Leu-Gly-Leu-A2pr(Dnp)-Ala-Arg-NH2 substrate, 96-well
# Assay type: biochemical
# measurement parameters: Test Example No. 1-1 (Method 1, 96-well microplate); read-out: Human MMP2, IC50
*1 amine or outer side, *2 acyl side, *3 side chain or, on linkers, in order; H or OH if unused. Where a SMILES comes first, the peptide text is derived from it. [ ]: non-standard residue; d: D form. The star is where a group is joined. Phenylsulfonyl(4-anisamido) = COc1ccc(C(=O)Nc2ccc(S(=O)(=O)*)cc2)cc1; Benzoyl(4-O-C6H4-4-CONHMe) = CNC(=O)c1ccc(Oc2ccc(C(=O)*)cc2)cc1; X12 = O=S(=O)(c1ccc(-c2cn(-c3ccccc3)nn2)cc1)*; Benzoyl(4-OPh) = O=C(c1ccc(Oc2ccccc2)cc1)*; d(γGlu) = O=C(O)[C@@H](CCC(=O)[*:2])N[*:1]; d(βAsp) = O=C(O)[C@@H](CC(=O)[*:2])N[*:1]; X7 = O=S(=O)(c1ccc(-c2ccc(OCCO)cc2)cc1)*; NMeI = CC[C@H](C)[C@H](NC)C(=O)O; NMeE = CN[C@@H](CCC(=O)O)C(=O)O; β3hP = O=C(O)C[C@@H]1CCCN1; Dab = NCC[C@H](N)C(=O)O; Dap = NC[C@H](N)C(=O)O; Ahx = NCCCCCC(=O)O; GABA = NCCCC(=O)O
Scale: log10; quantity: IC50; unit before log: pM

Sample answers from the record:
{"molecule": "CC(C)C[C@H](NC(=O)[C@H](CN)NC(=O)C[C@@H](NS(=O)(=O)c1ccc(-c2ccc(OCCO)cc2)cc1)C(=O)O)C(=O)N(C)[C@@H](CCC(=O)O)C(=O)N1CCC[C@H]1CC(N)=O [Compound 638] ({X7-d(βAsp)}-[Dap]L[NMeE][β3hP]-NH2; N-terminus assumed)", "log10 of IC50": 2.15}
{"molecule": "CNC(=O)c1ccc(Oc2ccc(C(=O)NCCCCCC(=O)N[C@@H](CCCNC(=N)N)C(=O)N[C@@H](CC(=O)O)C(=O)N[C@@H](CCN)C(=O)N[C@@H](CC(C)C)C(=O)N(C)[C@@H](CCC(=O)O)C(=O)N3CCC[C@H]3CC(N)=O)cc2)cc1 [Compound 190] ({Benzoyl(4-O-C6H4-4-CONHMe)-Ahx}-RD[Dab]L[NMeE][β3hP]-NH2; N-terminus assumed)", "log10 of IC50": 3.26}
{"molecule": "CC[C@H](C)[C@@H](C(=O)N1CCC[C@H]1CC(N)=O)N(C)C(=O)[C@H](CC(C)C)NC(=O)[C@H](CCN)NC(=O)CC[C@@H](NS(=O)(=O)c1ccc(-c2cn(-c3ccccc3)nn2)cc1)C(=O)O [Compound 608] ({X12-d(γGlu)}-[Dab]L[NMeI][β3hP]-NH2)", "log10 of IC50": 2.53}
{"molecule": "CC[C@H](C)[C@@H](C(=O)N1CCC[C@H]1CC(N)=O)N(C)C(=O)[C@H](CC(C)C)NC(=O)[C@H](CCN)NC(=O)[C@H](CC(=O)O)NC(=O)[C@H](CCC(=O)O)NC(=O)CCCNC(=O)c1ccc(Oc2ccccc2)cc1 [Compound 147] ({Benzoyl(4-OPh)-GABA}-ED[Dab]L[NMeI][β3hP]-NH2; N-terminus assumed)", "log10 of IC50": 2.15}
{"molecule": "CC[C@H](C)[C@@H](C(=O)N[C@@H](CC(=O)O)C(=O)N[C@@H](C)C(=O)N[C@@H](CC(C)C)C(=O)N(C)[C@H](C(=O)N1CCC[C@H]1C(N)=O)[C@@H](C)CC)N(C)C(=O)CCCNC(=O)c1ccc(Oc2ccccc2)cc1 [Compound 121] ({Benzoyl(4-OPh)-GABA}-[NMeI]DAL[NMeI]P-NH2; N-terminus assumed)", "log10 of IC50": 2.28}
{"molecule": "CC[C@H](C)[C@@H](C(=O)N1CCC[C@H]1CC(N)=O)N(C)C(=O)[C@H](CC(C)C)NC(=O)[C@H](CCN)NC(=O)C[C@@H](NS(=O)(=O)c1ccc(NC(=O)c2ccc(OC)cc2)cc1)C(=O)O [Compound 694] ({Phenylsulfonyl(4-anisamido)-d(βAsp)}-[Dab]L[NMeI][β3hP]-NH2; N-terminus assumed)", "log10 of IC50": 1.97}

From here, focus on the item given below.
// query Consider the molecule shown here: CC[C@H](C)[C@@H](C(=O)N1CCC[C@H]1C(N)=O)N(C)C(=O)[C@H](CC(C)C)NC(=O)[C@H](C)NC(=O)[C@H](CC(=O)O)NC(=O)[C@H](CCC(N)=O)NC(=O)CCCNC(=O)c1ccc(Oc2ccccc2)cc1 [Compound 128] ({Benzoyl(4-OPh)-GABA}-QDAL[NMeI]P-NH2; N-terminus assumed) What is its recorded log10 of IC50?
// result 2.18
